Recorded values, source patent US8673910B2.

Target: chymotrypsin-like (CT-L) activity of purified 20S rabbit proteasome (Oryctolagus cuniculus, UniProt G1T4Q9)
Sequence (G1T4Q9 1-263): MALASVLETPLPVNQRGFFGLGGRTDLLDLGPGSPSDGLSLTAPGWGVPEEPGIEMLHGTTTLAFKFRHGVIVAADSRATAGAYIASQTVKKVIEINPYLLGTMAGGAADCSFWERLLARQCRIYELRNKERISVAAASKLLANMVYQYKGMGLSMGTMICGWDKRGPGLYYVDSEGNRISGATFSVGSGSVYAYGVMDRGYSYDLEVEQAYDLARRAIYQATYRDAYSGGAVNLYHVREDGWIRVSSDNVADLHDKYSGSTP
Test: Proteolytic activity of purified 20S proteasome, fluorogenic substrate Suc-Leu-Leu-Val-Tyr-AMC
Format: biochemical
Settings: hydronaphthoquinone sulfonamides (Table 9); purified rabbit 20S proteasome; read-out: IC50 (μM), inhibition of chymotrypsin-like activity
Collected IC50 values appear next to each entry.
Record the value in µM, omitting the unit from your answer.

Illustrative cases are given below, each with its answer.
CCOC(=O)CSc1cc(NS(=O)(=O)c2ccc([N+](=O)[O-])cc2)c2ccccc2c1O    3.57
COC(=O)CCSc1cc(NS(=O)(=O)c2cccs2)c2ccccc2c1O    4.99

Report IC50, nothing else, for this compound: CC(Sc1cc(NS(=O)(=O)c2ccc3ccccc3c2)c2ccccc2c1O)C(=O)O (centres unmarked) [Compound 14v]
9.11

Report IC50, nothing else, for this compound: CCOC(=O)CSc1cc(NS(=O)(=O)c2cccs2)c2ccccc2c1O
7.33

Report IC50, nothing else, for this compound: Cn1nnnc1Sc1cc(NS(=O)(=O)c2cccs2)c2ccccc2c1O [Compound 14d]
4.25

Report IC50, nothing else, for this compound: O=C(O)CSc1cc(NS(=O)(=O)c2cccs2)c2ccccc2c1O [Compound 10a]
1.3

Report IC50, nothing else, for this compound: O=C(O)CSc1cc(NS(=O)(=O)c2ccc(Cl)cc2)c2ccccc2c1O [Compound 14p]
3.75

Report IC50, nothing else, for this compound: COC(=O)CCSc1cc(NS(=O)(=O)c2cc(Cl)c(Cl)s2)c2ccccc2c1O [Compound 14m]
1.18
